Taken from ChEMBL document CHEMBL1140176.

# Tested on: CCRF-CEM
# measurementNotes: Cytotoxicity against human CEM cells
# Format: cell-based
# conditionDetails: ccrf-cem
For each record, write down the corresponding CC50.
Numbers only, in µM.

Examples with their reported CC50 follow.
| compound | unit | CC50 |
| --- | --- | --- |
| Cc1cn([C@H]2C=C[C@@H](COP3(=O)OCc4cc(CCC(=O)N[C@@H](C)C(=O)OCc5ccccc5)ccc4O3)O2)c(=O)[nH]c1=O (stereo in doubt; form 1) | µM | 48 |
| Cc1cn([C@H]2C=C[C@@H](COP3(=O)OCc4cc(CCC(=O)N[C@@H](C)C(=O)OCc5ccccc5)ccc4O3)O2)c(=O)[nH]c1=O (stereo in doubt; form 3) | µM | 23 |

(Q) # input compound: Cc1cn([C@H]2C=C[C@@H](COP3(=O)OCc4cc(CCC(=O)N[C@@H](C)C(=O)OCc5ccccc5)ccc4O3)O2)c(=O)[nH]c1=O (stereo in doubt; form 2) ; wanted: its CC50
(A) 61

---

# measurementNotes: Cytotoxicity against human CEM cells
# Format: cell-based, CCRF-CEM
# conditionDetails: CEM cells
quantityMeasured: CC50 (µM)
Numbers only, in µM.

| compound | quantityMeasured | testResult |
| --- | --- | --- |
| Cc1cn([C@H]2C=C[C@@H](CO)O2)c(=O)[nH]c1=O [STAVUDINE] | CC50 | 234 |
| COC(=O)CNC(=O)CCc1ccc2c(c1)COP(=O)(OC[C@@H]1C=C[C@H](n3cc(C)c(=O)[nH]c3=O)O1)O2 (some centres not stated) | CC50 | 220 |
| COC(=O)[C@@H](C)NC(=O)CCc1ccc2c(c1)COP(=O)(OC[C@@H]1C=C[C@H](n3cc(C)c(=O)[nH]c3=O)O1)O2 (some centres not stated) | CC50 | 61 |
| Cc1cn([C@H]2C=C[C@@H](COP3(=O)OCc4cc(CCC(=O)N[C@@H](C)C(=O)O)ccc4O3)O2)c(=O)[nH]c1=O (some centres not stated) | CC50 | 77 |
| Cc1cn([C@H]2C=C[C@@H](COP3(=O)OCc4cc(CCC(=O)NCC(=O)OCc5ccccc5)ccc4O3)O2)c(=O)[nH]c1=O (some centres not stated) | CC50 | 75 |
| Cc1cn([C@H]2C=C[C@@H](COP3(=O)OCc4cc(CCC(=O)N5CCC[C@H]5C(=O)OCc5ccccc5)ccc4O3)O2)c(=O)[nH]c1=O (some centres not stated) | CC50 | 46 |

Now consider the entry below.
(Q) # input compound: Cc1cn([C@H]2C=C[C@@H](COP3(=O)OCc4cc(CCC(=O)O)ccc4O3)O2)c(=O)[nH]c1=O (some centres not stated) ; wanted: its CC50
(A) 74

---

# Tested on: Human immunodeficiency virus 2
# measurementNotes: Antiviral activity against HIV2 ROD in thymidine kinase deficient human CEM cells
# Type: functional, organism-based, CCRF-CEM
# conditionDetails: Human immunodeficiency virus 2, ROD, CCRF-CEM
quantityMeasured: EC50 (µM)
One number for each entry, in µM.

| molecule | assayedTarget | testResult |
| --- | --- | --- |
| Cc1cn([C@H]2C=C[C@@H](COP3(=O)OCc4cc(CCC(=O)N[C@@H](C)C(=O)OC(C)(C)C)ccc4O3)O2)c(=O)[nH]c1=O (stereo not given in full) | Human immunodeficiency virus 2 | 3.8 |
| COC(=O)CNC(=O)CCc1ccc2c(c1)COP(=O)(OC[C@@H]1C=C[C@H](n3cc(C)c(=O)[nH]c3=O)O1)O2 (stereo not given in full) | Human immunodeficiency virus 2 | 4 |
| Cc1cn([C@H]2C=C[C@@H](CO)O2)c(=O)[nH]c1=O | Human immunodeficiency virus 2 | 47.5 |

Look up EC50 for the entries below, preserving their order.
1. Cc1cn([C@H]2C=C[C@@H](COP3(=O)OCc4cc(CCC(=O)N[C@@H](C)C(=O)O)ccc4O3)O2)c(=O)[nH]c1=O (stereo not given in full)
2. Cc1cn([C@H]2C=C[C@@H](COP3(=O)OCc4cc(CCC(=O)N5CCC[C@H]5C(=O)OCc5ccccc5)ccc4O3)O2)c(=O)[nH]c1=O (stereo not given in full)
3. COC(=O)[C@@H](C)NC(=O)CCc1ccc2c(c1)COP(=O)(OC[C@@H]1C=C[C@H](n3cc(C)c(=O)[nH]c3=O)O1)O2 (stereo not given in full)
4. COC(=O)[C@@H]1CCCN1C(=O)CCc1ccc2c(c1)COP(=O)(OC[C@@H]1C=C[C@H](n3cc(C)c(=O)[nH]c3=O)O1)O2 (stereo not given in full)
5. COC(=O)[C@H](C)NC(=O)CCc1ccc2c(c1)COP(=O)(OC[C@@H]1C=C[C@H](n3cc(C)c(=O)[nH]c3=O)O1)O2 (stereo not given in full)
6. Cc1cn([C@H]2C=C[C@@H](COP3(=O)OCc4cc(CCC(=O)O)ccc4O3)O2)c(=O)[nH]c1=O (stereo not given in full)
7. Cc1cn([C@H]2C=C[C@@H](COP3(=O)OCc4cc(CCC(=O)NCC(=O)OCc5ccccc5)ccc4O3)O2)c(=O)[nH]c1=O (stereo not given in full)

(A)
1: 4.1; 2: 21; 3: 4.2; 4: 2.8; 5: 2.5; 6: 50; 7: 0.4
